# measuredTarget: CRBN-DDB1 complex (Homo sapiens)
# Construct: His6-ZZ-HRV3C (N); made in house; host or cells: Sf9 insect cells (baculovirus co-infection)
# experimentSummary: CRBN/DDB1 fluorescence polarization competition assay
# Type: binding
# condition: best-fit value, variable slope four parameters; read-out: CRBN/DDB1 FP IC50, single repeat N=1
observedProperty: IC50 (nM)

>>> numericvalue("O=C(COc1cccc2c1C(=O)N(C1CCC(=O)NC1=O)C2=O)NCCOCCC(=O)N1CCN(Cc2ccc3cc(C(=O)Nc4cc(NC(=O)c5ccc6c(c5)OCCO6)ccc4F)ccc3n2)CC1 (stereo not shown)")
568
>>> numericvalue("O=C1CCC(N2C(=O)c3cccc(OCCOCCOCCN4CCN(Cc5ccc6cc(C(=O)Nc7cc(NC(=O)c8cccc9c8OCCO9)ccc7Cl)ccc6n5)CC4)c3C2=O)C(=O)N1 (stereo not shown)")
590
>>> numericvalue("O=C1CCC(N2C(=O)c3cccc(OCCOCCOCCN4CCN(Cc5ccc6cc(C(=O)Nc7cc(NC(=O)c8ccc9c(c8)OCCO9)ccc7Cl)ccc6n5)CC4)c3C2=O)C(=O)N1 (stereo not shown)")
715
>>> numericvalue("Cc1ccc(NC(=O)c2ccc3c(c2)OCCO3)cc1NC(=O)c1ccc2nc(OCCCC(=O)NCCOCCNC(=O)COc3cccc4c3C(=O)N(C3CCC(=O)NC3=O)C4=O)ccc2c1 (stereo not shown)")
1510

* * *

# measuredTarget: pirin (Homo sapiens)
# experimentSummary: Pirin SPR (surface plasmon resonance) binding
# condition: Pirin SPR KD, representative single repeat, best-fit value, one site specific binding
pKd: −log10 of the molar value.
observedProperty: pKd

>>> numericvalue("Cc1ccc(NC(=O)c2ccc3c(c2)OCCO3)cc1NC(=O)c1ccc2nc(OCCCC(=O)NCCOCCNC(=O)COc3cccc4c3C(=O)N(C3CCC(=O)NC3=O)C4=O)ccc2c1 (stereo not shown)")
6.95

(P) O=C(COc1cccc2c1C(=O)N(C1CCC(=O)NC1=O)C2=O)NCCOCCC(=O)N1CCN(Cc2ccc3cc(C(=O)Nc4cc(NC(=O)c5ccc6c(c5)OCCO6)ccc4F)ccc3n2)CC1 (stereo not shown)
(Q) O=C1CCC(N2C(=O)c3cccc(OCCOCCOCCN4CCN(Cc5ccc6cc(C(=O)Nc7cc(NC(=O)c8ccc9c(c8)OCCO9)ccc7Cl)ccc6n5)CC4)c3C2=O)C(=O)N1 (stereo not shown)
(R) CCN1CCN(Cc2ccc3cc(C(=O)Nc4cc(NC(=O)c5ccc6c(c5)OCCO6)ccc4Cl)ccc3n2)CC1 [chlorobisamide 22]
Prompt: Rank the items in ascending order with respect to pKd. Provide your answer as the labels ordered per the instruction.
Completion: P, Q, R

* * *

# measuredTarget: CRBN-DDB1 complex (Homo sapiens)
# Construct: His6-ZZ-HRV3C (N); made in house; host or cells: Sf9 insect cells (baculovirus co-infection)
# experimentSummary: CRBN/DDB1 fluorescence polarization competition assay
# Assay type: binding
# condition: calculated from geometric mean CRBN-DDB1 IC50 and FP-probe KD
observedProperty: Ki (nM)

>>> numericvalue("Cc1ccc(NC(=O)c2ccc3c(c2)OCCO3)cc1NC(=O)c1ccc2nc(OCCCC(=O)NCCOCCNC(=O)COc3cccc4c3C(=O)N(C3CCC(=O)NC3=O)C4=O)ccc2c1 (stereo not shown)")
220
>>> numericvalue("O=C1CCC(N2C(=O)c3cccc(OCCOCCOCCN4CCN(Cc5ccc6cc(C(=O)Nc7cc(NC(=O)c8ccc9c(c8)OCCO9)ccc7Cl)ccc6n5)CC4)c3C2=O)C(=O)N1 (stereo not shown)")
120
>>> numericvalue("O=C(COc1cccc2c1C(=O)N(C1CCC(=O)NC1=O)C2=O)NCCOCCC(=O)N1CCN(Cc2ccc3cc(C(=O)Nc4cc(NC(=O)c5ccc6c(c5)OCCO6)ccc4F)ccc3n2)CC1 (stereo not shown)")
95
>>> numericvalue("O=C1CCC(N2C(=O)c3cccc(OCCOCCOCCN4CCN(Cc5ccc6cc(C(=O)Nc7cc(NC(=O)c8cccc9c8OCCO9)ccc7Cl)ccc6n5)CC4)c3C2=O)C(=O)N1 (stereo not shown)")
98

* * *

# experimentSummary: Kinetic solubility determination by RP-HPLC
# condition: PBS, pH 7.4, aqueous buffer, kinetic from dmso stock
observedProperty: solubility kinetic at 120 min (µM)

Worked cases, solubility kinetic at 120 min given:
>>> numericvalue("Cc1ccc(NC(=O)c2ccc3c(c2)OCCO3)cc1NC(=O)c1ccc2nc(OCCCC(=O)NCCOCCNC(=O)COc3cccc4c3C(=O)N(C3CCC(=O)NC3=O)C4=O)ccc2c1 (stereo not shown) [PDP 3]")
1
>>> numericvalue("O=C1CCC(N2C(=O)c3cccc(OCCOCCOCCN4CCN(Cc5ccc6cc(C(=O)Nc7cc(NC(=O)c8ccc9c(c8)OCCO9)ccc7Cl)ccc6n5)CC4)c3C2=O)C(=O)N1 (stereo not shown) [PDP 16]")
2

(A) O=C1CCC(N2C(=O)c3cccc(OCCOCCOCCN4CCN(Cc5ccc6cc(C(=O)Nc7cc(NC(=O)c8cccc9c8OCCO9)ccc7Cl)ccc6n5)CC4)c3C2=O)C(=O)N1 (stereo not shown) [PDP 21]
(B) O=C(COc1cccc2c1C(=O)N(C1CCC(=O)NC1=O)C2=O)NCCOCCC(=O)N1CCN(Cc2ccc3cc(C(=O)Nc4cc(NC(=O)c5ccc6c(c5)OCCO6)ccc4F)ccc3n2)CC1 (stereo not shown) [PDP 10]
Prompt: Which value of solubility kinetic at 120 min is greater, the one for A or the one for B ? Write down the label of the entry you select.
Completion: B
(B: 5 µM, A: 2 µM)

* * *

# measuredTarget: CRBN-DDB1 complex (Homo sapiens, UniProt Q96SW2)
# Construct: His6-ZZ-HRV3C (N); made in house; host or cells: Sf9 insect cells (baculovirus co-infection)
# experimentSummary: CRBN/DDB1 fluorescence polarization competition assay
# Format: binding
# condition: displacement of thalidomide derived fluorescent probe, geometric mean n = 3; read-out: CRBN/DDB1 FP IC50
observedProperty: IC50 (nM)

>>> numericvalue("O=C(COc1cccc2c1C(=O)N(C1CCC(=O)NC1=O)C2=O)NCCOCCC(=O)N1CCN(Cc2ccc3cc(C(=O)Nc4cc(NC(=O)c5ccc6c(c5)OCCO6)ccc4F)ccc3n2)CC1 (stereo not shown)")
410
>>> numericvalue("O=C1CCC(N2C(=O)c3cccc(OCCOCCOCCN4CCN(Cc5ccc6cc(C(=O)Nc7cc(NC(=O)c8ccc9c(c8)OCCO9)ccc7Cl)ccc6n5)CC4)c3C2=O)C(=O)N1 (stereo not shown)")
490
>>> numericvalue("O=C1CCC(N2C(=O)c3cccc(OCCOCCOCCN4CCN(Cc5ccc6cc(C(=O)Nc7cc(NC(=O)c8cccc9c8OCCO9)ccc7Cl)ccc6n5)CC4)c3C2=O)C(=O)N1 (stereo not shown)")
420
>>> numericvalue("Cc1ccc(NC(=O)c2ccc3c(c2)OCCO3)cc1NC(=O)c1ccc2nc(OCCCC(=O)NCCOCCNC(=O)COc3cccc4c3C(=O)N(C3CCC(=O)NC3=O)C4=O)ccc2c1 (stereo not shown)")
850
